target: UniProtKB O15197
Sequence (O15197 whole entry): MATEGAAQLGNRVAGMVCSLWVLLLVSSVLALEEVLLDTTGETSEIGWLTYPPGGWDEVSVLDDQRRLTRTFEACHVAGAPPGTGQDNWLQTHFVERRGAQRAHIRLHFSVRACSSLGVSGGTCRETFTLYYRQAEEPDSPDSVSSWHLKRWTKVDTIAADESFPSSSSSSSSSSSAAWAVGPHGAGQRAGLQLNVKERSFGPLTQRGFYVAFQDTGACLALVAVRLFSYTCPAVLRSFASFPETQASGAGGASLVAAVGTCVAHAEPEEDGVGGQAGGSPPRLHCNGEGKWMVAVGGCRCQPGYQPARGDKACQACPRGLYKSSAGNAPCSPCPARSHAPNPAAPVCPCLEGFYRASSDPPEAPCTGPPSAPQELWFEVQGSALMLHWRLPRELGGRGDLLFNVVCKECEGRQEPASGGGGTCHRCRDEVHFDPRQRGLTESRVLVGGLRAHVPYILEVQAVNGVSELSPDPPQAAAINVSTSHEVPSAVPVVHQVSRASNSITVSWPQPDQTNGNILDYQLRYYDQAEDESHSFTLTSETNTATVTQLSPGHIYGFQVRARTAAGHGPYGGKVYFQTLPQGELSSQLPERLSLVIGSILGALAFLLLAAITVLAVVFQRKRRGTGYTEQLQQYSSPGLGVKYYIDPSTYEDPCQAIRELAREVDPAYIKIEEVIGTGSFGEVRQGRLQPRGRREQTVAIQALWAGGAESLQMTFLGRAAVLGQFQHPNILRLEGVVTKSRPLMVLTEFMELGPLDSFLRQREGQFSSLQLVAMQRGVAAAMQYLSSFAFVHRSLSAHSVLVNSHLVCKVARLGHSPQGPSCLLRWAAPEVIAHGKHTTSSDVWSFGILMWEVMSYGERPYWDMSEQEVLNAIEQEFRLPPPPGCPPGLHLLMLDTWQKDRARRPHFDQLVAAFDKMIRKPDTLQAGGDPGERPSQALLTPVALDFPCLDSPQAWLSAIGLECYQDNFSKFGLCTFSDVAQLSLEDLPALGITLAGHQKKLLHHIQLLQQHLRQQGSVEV
Activity calls are given as the source filed them.
Please answer using one outcome listed in true (1) (active), false (0) (inactive)

molecule="Cc1ccc(NC(=O)c2ccc(CN3CC[C@H](N(C)C)C3)c(C(F)(F)F)c2)cc1Nc1nccc(-c2cncnc2)n1 [BAFETINIB]" target_of_assay="UniProtKB O15197" label_value="false (0)"
molecule="O=C(c1ccc(F)c(F)c1Nc1ccc(I)cc1F)N1CC(O)([C@@H]2CCCCN2)C1 [COBIMETINIB]" target_of_assay="UniProtKB O15197" label_value="false (0)"
molecule="OCCn1cc(-c2cnc3nnn(Cc4ccc5ncccc5c4)c3n2)cn1 [PF-04217903]" target_of_assay="UniProtKB O15197" label_value="false (0)"
molecule="CO[C@H]1C[C@@H]2CC[C@@H](C)[C@@](O)(O2)C(=O)C(=O)N2CCCC[C@H]2C(=O)O[C@H]([C@H](C)C[C@@H]2CC[C@@H](OCCO)[C@H](OC)C2)CC(=O)[C@H](C)/C=C(\\C)[C@@H](O)[C@@H](OC)C(=O)[C@H](C)C[C@H](C)/C=C/C=C/C=C/1C [EVEROLIMUS]" target_of_assay="UniProtKB O15197" label_value="false (0)"

# input Record request — test call for "N[C@@H]1CCCN(c2c(/C=C3\SC(=O)NC3=O)cccc2-c2ccccc2)C1"
# output false (0)

# input So what was the verdict on COC(=O)N[C@@H](C)CNc1nccc(-c2cn(C(C)C)nc2-c2cc(Cl)cc(NS(C)(=O)=O)c2F)n1 [ENCORAFENIB] in this test?
# output false (0)

====

target: Actin-related protein 2 (Homo sapiens); also: in the data inactive means no Kd found up to 30 µM
Active and inactive are the calls of the source.
experimental_endpoint: Kd

# input Specify the recorded Kd for "Cc1cn(-c2cc(NC(=O)c3ccc(C)c(Nc4nccc(-c5cccnc5)n4)c3)cc(C(F)(F)F)c2)cn1" , system: Actin-related protein 2 (Homo sapiens). Also: in the data inactive means no Kd found up to 30 µM.
# output > 30 µM (inactive)

# input Look up Actin-related protein 2 (Homo sapiens) data: Kd of "CC(C)Nc1cc(-c2c[nH]c(C(=O)N[C@H](CO)c3cccc(Cl)c3)c2)c(Cl)cn1" , then report it.
# output > 30 µM (inactive)

# input Fill in Kd for "CC[C@H](Nc1ncnc2[nH]cnc12)c1nc2cccc(F)c2c(=O)n1-c1ccccc1" tested with Actin-related protein 2 (Homo sapiens).
# output > 30 µM (inactive)

====

biological target: Citron Rho-interacting kinase (Homo sapiens, UniProt O14578); also: in the data inactive means no Kd found up to 30 µM
Sequence (O14578 whole entry): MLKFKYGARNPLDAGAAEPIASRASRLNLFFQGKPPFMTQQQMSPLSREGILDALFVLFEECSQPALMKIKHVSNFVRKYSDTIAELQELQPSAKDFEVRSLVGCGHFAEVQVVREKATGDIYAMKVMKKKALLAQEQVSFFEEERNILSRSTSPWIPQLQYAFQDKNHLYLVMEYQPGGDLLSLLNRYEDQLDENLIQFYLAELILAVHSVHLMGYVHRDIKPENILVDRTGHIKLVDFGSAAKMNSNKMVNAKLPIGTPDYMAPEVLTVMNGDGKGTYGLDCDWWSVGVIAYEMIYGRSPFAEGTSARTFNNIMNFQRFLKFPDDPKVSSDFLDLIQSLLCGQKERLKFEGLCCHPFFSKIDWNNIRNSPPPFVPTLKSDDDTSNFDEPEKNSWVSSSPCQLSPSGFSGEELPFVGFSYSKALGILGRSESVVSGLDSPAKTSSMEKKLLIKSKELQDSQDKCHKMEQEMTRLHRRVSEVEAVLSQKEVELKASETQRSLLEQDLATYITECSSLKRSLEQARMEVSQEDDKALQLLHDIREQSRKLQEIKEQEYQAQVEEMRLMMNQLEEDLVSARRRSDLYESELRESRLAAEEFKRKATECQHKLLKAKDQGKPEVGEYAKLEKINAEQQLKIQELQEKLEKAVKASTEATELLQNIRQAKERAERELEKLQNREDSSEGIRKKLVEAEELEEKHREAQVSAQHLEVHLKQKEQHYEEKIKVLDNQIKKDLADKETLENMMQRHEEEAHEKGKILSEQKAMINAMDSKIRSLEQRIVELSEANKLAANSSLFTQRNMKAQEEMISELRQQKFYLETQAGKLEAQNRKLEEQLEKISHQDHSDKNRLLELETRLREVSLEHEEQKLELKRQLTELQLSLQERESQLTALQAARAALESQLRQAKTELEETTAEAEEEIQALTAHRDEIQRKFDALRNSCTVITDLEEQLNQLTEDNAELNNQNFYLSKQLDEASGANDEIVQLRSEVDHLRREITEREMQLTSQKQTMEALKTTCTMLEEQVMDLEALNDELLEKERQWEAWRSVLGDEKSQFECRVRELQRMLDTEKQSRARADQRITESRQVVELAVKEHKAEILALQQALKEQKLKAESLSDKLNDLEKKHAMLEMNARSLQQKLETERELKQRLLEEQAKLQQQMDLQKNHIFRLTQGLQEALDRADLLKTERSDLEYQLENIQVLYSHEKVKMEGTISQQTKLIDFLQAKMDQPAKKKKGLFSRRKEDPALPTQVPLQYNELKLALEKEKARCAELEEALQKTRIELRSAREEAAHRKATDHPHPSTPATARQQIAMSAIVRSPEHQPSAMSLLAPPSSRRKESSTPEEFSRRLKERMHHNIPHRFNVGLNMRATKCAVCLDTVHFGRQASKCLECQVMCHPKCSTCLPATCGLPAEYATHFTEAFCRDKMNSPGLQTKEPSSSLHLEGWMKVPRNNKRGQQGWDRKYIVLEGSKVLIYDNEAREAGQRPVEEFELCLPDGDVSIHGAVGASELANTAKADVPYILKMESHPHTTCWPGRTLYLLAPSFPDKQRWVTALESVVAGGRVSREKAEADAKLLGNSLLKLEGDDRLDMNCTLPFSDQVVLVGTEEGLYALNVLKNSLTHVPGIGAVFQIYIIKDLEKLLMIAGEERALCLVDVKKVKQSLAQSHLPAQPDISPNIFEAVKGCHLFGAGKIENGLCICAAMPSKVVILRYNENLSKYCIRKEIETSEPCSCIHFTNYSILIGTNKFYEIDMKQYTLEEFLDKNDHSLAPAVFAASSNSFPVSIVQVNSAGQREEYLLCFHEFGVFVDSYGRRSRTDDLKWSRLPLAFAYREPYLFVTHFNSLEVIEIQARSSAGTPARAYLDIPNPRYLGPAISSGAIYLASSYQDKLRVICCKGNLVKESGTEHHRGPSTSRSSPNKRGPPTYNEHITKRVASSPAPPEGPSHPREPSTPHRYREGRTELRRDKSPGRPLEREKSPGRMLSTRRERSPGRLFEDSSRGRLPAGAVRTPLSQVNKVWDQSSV
The source made the active and inactive calls.
experimental_endpoint: Kd

Examples with answers:
molecule="O=C(c1ccc(F)c(F)c1Nc1ccc(I)cc1F)N1CC(O)([C@@H]2CCCCN2)C1 [COBIMETINIB]" experimental_endpoint=Kd observed_measurement="> 30 µM (inactive)"
molecule="COC(=O)[C@@]1(O)C[C@H]2O[C@]1(C)n1c3ccccc3c3c4c(c5c6ccccc6n2c5c31)C(=O)NC4 [K-252A]" experimental_endpoint=Kd observed_measurement="> 30 µM (inactive)"
molecule="Cc1c(F)cc(C(=O)NC2CC2)cc1-c1ccc(C(=O)NCC(C)(C)C)cn1 [LOSMAPIMOD]" experimental_endpoint=Kd observed_measurement="> 30 µM (inactive)"
molecule="Cc1ccc(-n2nc(C(C)(C)C)cc2NC(=O)NCc2cc(F)ccc2Oc2ccc3c(cnn3CCO)c2)cc1 [PEXMETINIB]" experimental_endpoint=Kd observed_measurement="> 30 µM (inactive)"
molecule="CCCS(=O)(=O)Nc1ccc(F)c(C(=O)c2c[nH]c3ncc(-c4ccc(Cl)cc4)cc23)c1F [VEMURAFENIB]" experimental_endpoint=Kd observed_measurement="> 30 µM (inactive)"
molecule="COCCNCc1ccc(-c2cc3nccc(Oc4ccc(NC(=S)NC(=O)Cc5ccc(F)cc5)cc4F)c3s2)nc1 [GLESATINIB]" experimental_endpoint=Kd observed_measurement="> 30 µM (inactive)"

# input Print Citron Rho-interacting kinase (Homo sapiens, UniProt O14578) Kd for CNC(=O)CN1CCC(Oc2cc3c(Nc4cccc(Cl)c4F)ncnc3cc2OC)CC1 [SAPITINIB] .
# output > 30 µM (inactive)

# input Give Kd for "Cc1ccc(S(=O)(=O)Nc2nc3ccccc3nc2Nc2ccc3nsnc3c2)cc1" tested on Citron Rho-interacting kinase (Homo sapiens, UniProt O14578). Also: in the data inactive means no Kd found up to 30 µM.
# output > 30 µM (inactive)

Origin of measurements: ChEMBL document CHEMBL3991601
